Provenance of the data: ChEMBL document CHEMBL3992540

target-or-test-system: Carbonic anhydrase 7 (Homo sapiens, UniProt P43166)
Sequence (P43166 whole entry): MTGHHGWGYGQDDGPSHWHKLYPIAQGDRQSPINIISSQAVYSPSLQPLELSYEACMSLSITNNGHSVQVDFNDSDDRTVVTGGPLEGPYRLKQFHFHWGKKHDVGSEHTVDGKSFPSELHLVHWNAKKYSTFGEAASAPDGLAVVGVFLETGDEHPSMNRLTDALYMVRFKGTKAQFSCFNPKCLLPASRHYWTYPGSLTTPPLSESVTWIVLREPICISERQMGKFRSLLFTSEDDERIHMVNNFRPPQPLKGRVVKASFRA
assay: Inhibition of human recombinant carbonic anhydrase 7 incubated for 15 mins prior to testing by stopped-flow CO2 hydration assay
pKi: −log10 of the molar value.
Label -1 if pKi falls below 7; label 1 in every other case.

Check out these entries, answers already filled in.
> print(dat)
                           molecular.string  group
1     NS(=O)(=O)c1ccc(CC/N=C2\NC(=O)CS2)cc1      1
2  NS(=O)(=O)c1ccc(CC/N=C2\C(=O)N(Cc3ccccc3)c3ccccc32)cc1     -1

Quick check, pKi >= 7? NS(=O)(=O)c1ccc(CC/N=C2\C(=O)N(Cc3ccccc3)c3ccc(Cl)cc32)cc1
-1

Quick check, pKi >= 7? CN1C(=O)/C(=N\CCc2ccc(S(N)(=O)=O)cc2)c2ccccc21
1

###

target-or-test-system: Carbonic anhydrase 1 (Homo sapiens)
Sequence (P00915 whole entry): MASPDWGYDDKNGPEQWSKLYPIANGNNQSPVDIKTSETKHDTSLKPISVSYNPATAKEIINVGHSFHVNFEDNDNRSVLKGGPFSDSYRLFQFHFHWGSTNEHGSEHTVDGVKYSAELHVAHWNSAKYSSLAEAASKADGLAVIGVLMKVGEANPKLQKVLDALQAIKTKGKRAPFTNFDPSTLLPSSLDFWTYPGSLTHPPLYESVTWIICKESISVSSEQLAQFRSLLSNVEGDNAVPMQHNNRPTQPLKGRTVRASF
assay: Inhibition of human recombinant carbonic anhydrase 1 incubated for 15 mins prior to testing by stopped-flow CO2 hydration assay
readout-name: pKi
Numbers only, as −log10 of the molar value.

> print(dat)
                            molecular.string  readout.name  observed
 1  CN1C(=O)/C(=N\CCc2ccc(S(N)(=O)=O)cc2)c2ccccc21           pKi      7.38
 2  NS(=O)(=O)c1ccc(CC/N=C2\NC(=O)/C(=C3/C(=O)Nc4ccccc43)S2)cc1           pKi      6.06
 3  NS(=O)(=O)c1ccc(CC/N=C2\C(=O)Nc3ccc(Cl)cc32)cc1           pKi      7.19
 4     NS(=O)(=O)c1ccc(CC/N=C2\NC(=O)CS2)cc1           pKi      7.03
 5  Cc1ccc2c(c1)/C(=C1/S/C(=N/CCc3ccc(S(N)(=O)=O)cc3)NC1=O)C(=O)N2           pKi      6.07
 6  NS(=O)(=O)c1ccc(CC/N=C2\C(=O)Nc3ccc(Br)cc32)cc1           pKi      7.09
 7  CN1C(=O)/C(=N\CCc2ccc(S(N)(=O)=O)cc2)c2cc(Cl)ccc21           pKi      6.18
 8  NS(=O)(=O)c1ccc(CC/N=C2\C(=O)N(Cc3ccccc3)c3ccccc32)cc1           pKi      6.13
 9  NS(=O)(=O)c1ccc(CC/N=C2\C(=O)Nc3ccccc32)cc1           pKi      7.03
10  Cc1cc(C)c2c(c1)/C(=N/CCc1ccc(S(N)(=O)=O)cc1)C(=O)N2           pKi      6.59

Batch request: pKi for each of the following compounds.
1. CN1C(=O)/C(=N\CCc2ccc(S(N)(=O)=O)cc2)c2cc(Br)ccc21
2. NS(=O)(=O)c1ccc(CC/N=C2\C(=O)N(Cc3ccccc3)c3ccc(Br)cc32)cc1

1. 7.19
2. 5.21

Batch request: pKi for each of the following compounds.
1. COc1ccc2c(c1)/C(=N/CCc1ccc(S(N)(=O)=O)cc1)C(=O)N2
2. NS(=O)(=O)c1ccc(CC/N=C2\NC(=O)/C(=C3/C(=O)Nc4ccc(Br)cc43)S2)cc1
3. NS(=O)(=O)c1ccc(CC/N=C2\C(=O)N(Cc3ccccc3)c3ccc(Cl)cc32)cc1

1: 6.69; 2: 5.44; 3: 5.07

Batch request: pKi for each of the following compounds.
1. NS(=O)(=O)c1ccc(CC/N=C2\NC(=O)/C(=C3/C(=O)Nc4ccc(Cl)cc43)S2)cc1
2. Cc1ccc2c(c1)/C(=N/CCc1ccc(S(N)(=O)=O)cc1)C(=O)N2
3. NS(=O)(=O)c1ccc(CC/N=C2\NC(=O)/C(=C3/C(=O)Nc4ccc([N+](=O)[O-])cc43)S2)cc1

1: 5.35; 2: 6.50; 3: 6.58
